assay: MM1S cell viability effects, profiling panel, calcein-AM fluorescence, 48 h, basal (AID 1165); settings: higher = more signal;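 also: viability of MM1S multiple myeloma cells under basal unstimulated conditions; test concentration not given here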
ASSAY METRIC: z-score
Respond numerically, and do not add a unit to the figure.

Given the compound COC(=O)[C@@]1(Cc2ccc(OC)cc2)[C@H]2c3cc(C(=O)N4CCCC4)n(Cc4cc(C)n(C)n4)c3C[C@H]2CN1C(=O)c1ccccc1 , what is its reported z-score? 0.559

Given the compound C=CCC(OC(C)=O)[C@@H]1[C@@H](N(Cc2ccc(-c3cccc(C(F)(F)F)c3)o2)C(=O)c2cccc3ccccc23)c2cc(OCCCO)ccc2N1C(=O)Cc1ccc(OC)cc1 (stereo partly specified) , what is its reported z-score? -1.16

Given the compound C=C(/C(=C/C[C@@H](OC(C)=O)c1ccc(CO)o1)c1cc(C(=O)OC)ccc1OC)C(C)C , what is its reported z-score? -0.998

Given the compound COc1ccc([Si](C)(C)[C@H]2[C@H](CCO)O[C@@]3(C(=O)N(Cc4ccccc4)c4ccc(N5C(=O)c6ccccc6Oc6ccccc65)cc43)[C@@H]2C)cc1 , what is its reported z-score? -1.7

Given the compound O=C1c2ccccc2[C@](Cc2ccccc2I)(C(=O)NC2CC2)[C@H](c2ccc(CO)cc2)N1Cc1ccccc1C(F)(F)F , what is its reported z-score? -0.645

Given the compound COC(=O)[C@@]1(Cc2ccccc2)[C@H]2c3cc(C(=O)N(C)C)n(CCn4cc([N+](=O)[O-])nc4C)c3C[C@H]2CN1C(=O)c1ccccc1 , what is its reported z-score? 0.506

Cited source for all entries: PubChem BioAssay
